# credit: patent US20230287433

# Target of assay: ICAM-1 extracellular domain (C-terminal His) (Homo sapiens, UniProt P05362 SEQ:1-453)
# Sequence (P05362 28-480): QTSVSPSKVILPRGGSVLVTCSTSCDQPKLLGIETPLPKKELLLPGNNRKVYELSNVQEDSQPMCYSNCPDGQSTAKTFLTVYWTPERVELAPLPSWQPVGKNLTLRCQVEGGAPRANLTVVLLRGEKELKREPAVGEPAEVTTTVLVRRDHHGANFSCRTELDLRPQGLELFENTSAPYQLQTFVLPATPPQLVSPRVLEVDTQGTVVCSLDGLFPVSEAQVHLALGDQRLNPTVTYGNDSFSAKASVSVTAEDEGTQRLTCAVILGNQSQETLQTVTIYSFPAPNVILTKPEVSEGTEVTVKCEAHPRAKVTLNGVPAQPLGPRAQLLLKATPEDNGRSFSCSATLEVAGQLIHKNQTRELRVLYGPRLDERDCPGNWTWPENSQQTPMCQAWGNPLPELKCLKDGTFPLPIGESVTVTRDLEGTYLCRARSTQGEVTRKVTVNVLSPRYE
# Test summary: ITC; 37 C, potassium phosphate; 1.27 nM at 33 C (tighter)
# Protocol conditions: tags: C-terminal His6; Ray-Biotech 228-21751-2
# Description: Aptamers as disclosed herein were selected to perform at 37° C. in the SELEX selection process. Further, all experiments relating to performance of aptamers executed on cells grown in culture were performed at 37° C. as well, as this was the appropriate temperature for optimal cell growth and corresponds to body temperature. However, the aptamers are intended to function on the inner surface of the nasal cavity in vivo and said nasal cells show a slightly lower average temperature of 33° C. […]
Property: Kd (nM)
Numbers only here, please. The scale is nM.

Answer with the recorded Kd for the binder listed here: GTGCTCAGTTGTCAATCTAAGACTGCTGCTGAGGAAG (ssDNA) [NasD-4.1 State 6] 18.6
